- target.desc: T1, human LAG3-huFc (human, UniProt P18627 23-450, limits assumed)
- T1 construct: also called human LAG3-Fc; huLAG3-huFc; not shown: human Fc (huFc)
- T1 sequence: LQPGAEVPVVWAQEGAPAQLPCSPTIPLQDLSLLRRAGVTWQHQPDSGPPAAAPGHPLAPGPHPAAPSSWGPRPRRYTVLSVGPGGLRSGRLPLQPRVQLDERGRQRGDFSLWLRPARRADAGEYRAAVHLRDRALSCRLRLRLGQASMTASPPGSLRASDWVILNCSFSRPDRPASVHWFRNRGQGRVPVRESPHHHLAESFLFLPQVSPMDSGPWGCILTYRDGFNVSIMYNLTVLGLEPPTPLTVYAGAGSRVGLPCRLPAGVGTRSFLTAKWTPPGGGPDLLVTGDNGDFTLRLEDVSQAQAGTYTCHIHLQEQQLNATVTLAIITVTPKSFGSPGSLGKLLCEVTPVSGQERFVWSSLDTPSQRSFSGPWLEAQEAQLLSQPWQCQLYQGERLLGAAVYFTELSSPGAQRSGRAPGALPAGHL
- method: flow cytometry competition: antibody pre-incubated with human LAG3-huFc, its binding to Daudi cells (MHC class II) read
assay.endpoint: IC50 (nM)
Respond with the bare value in nM.

In the examples that follow, each entry is paired with its recorded IC50.
binder: LB148.11C9.1C1 (antibody, V domains shown, also called Lag3 clone 11C9; mouse x [LAG3_H] mAb (LB148.11C9.1C1) IgG1/kappa (HY)) VH: QVQLQQPGAELVMPGASAKMSCKASGYTLTDYWMHWVKQRPGQGLEWIGAIDISDSYSSYNQKFKGKATLTVDESSSTAYMQLTSLTSEDSAVYYCARSPFYNSRGGNYFDYWGQGTTLTVSS VL: DIQMTQTTSSLSASLGDRVTISCRASQDISNYLNWYQQKPDGTVKLLIYYTSRLHSGVPSRFSGSGSGTDYSLTISNLEQEDIATYFCQQGDTLPPWTFGGGTKLEIK
value.unit: nM
IC50: 2
--
binder: LB145.22D2.E1.1D1 (antibody, V domains shown, also called mouse anti-human LAG3 clone 22D2; Lag3 clone 22D2) VH: EVLLLQSGPELVKPGTSVKIPCKASGYTFTDYNVDWVKQRHGKGLEWIGDINPNNGGTIYSQKFKGKATLTVDKSSSTAFMELRSLTSEDTAVYFCARNYRWFGAMDHWGQGTSVTVSS VL: DIVLTQSPASLAVSPGQRATISCKASQSLDYEGDSDMNWYQQKPGQPPRLLISGASNLESGIPARFSGSGSGTDFTVNIHPVEEEDAATYYCQQSTEDPRTFGGGTKLEIK
value.unit: nM
IC50: 2.1
--
binder: LB148.4A10.1H1 (antibody, V domains shown, also called Lag3 clone 4A10; mouse x [LAG3_H] mAb (LB148.4A10.1H1) IgG2a/kappa (HY)) VH: EVQLLQSGAELVRSGASVKLSCTASGFNIEDYYMHWMKQRPEQGLEWIGWIDPVNGDTEYAPKFQGKATMTADTSSNTAYLHLNSLTSEDTAVYYCNFYDGYLFAFWGQGTLVTVSA VL: DIVLTQAAPSVPVTPGESVSISCRSSKSLLHSDGNTYLYWLLQRPGQSPQLLIYRMSNLASGVPDRFSGSGSGTVFTLRISRLEAEDVGIYYCMQHLEYPFTFGGGTKLEIK
value.unit: nM
IC50: 1.9

Provide one value: measured IC50 of LB148.19E8.G1.1A1 (antibody, V domains shown, also called Lag3 clone 19E8) VH: QIRLQQSGPELVKPGASVKISCKASGSSFTDYYINWVKQKPGQGLEWIGWIYPGSGNSIYNENFKAKATLTVDTSSSTAYMHLSSLTSEDTAVYFCAREADYDDALDYWGQGTSVTVSS VL: HILLTQSPAILSVSPGERVSFSCRASQSIGTSIHWYQQRTNGSPRLLIKYASESISGIPSRFSGSGSGTDFTLSINSVESEDIADYYCQQSNSWPTYTFGGGTKLEIK
2.8
